Numbers sourced from patent US20090075887A1.

Biological target: plasma kallikrein (Homo sapiens, UniProt P03952)
Sequence (P03952 20-638): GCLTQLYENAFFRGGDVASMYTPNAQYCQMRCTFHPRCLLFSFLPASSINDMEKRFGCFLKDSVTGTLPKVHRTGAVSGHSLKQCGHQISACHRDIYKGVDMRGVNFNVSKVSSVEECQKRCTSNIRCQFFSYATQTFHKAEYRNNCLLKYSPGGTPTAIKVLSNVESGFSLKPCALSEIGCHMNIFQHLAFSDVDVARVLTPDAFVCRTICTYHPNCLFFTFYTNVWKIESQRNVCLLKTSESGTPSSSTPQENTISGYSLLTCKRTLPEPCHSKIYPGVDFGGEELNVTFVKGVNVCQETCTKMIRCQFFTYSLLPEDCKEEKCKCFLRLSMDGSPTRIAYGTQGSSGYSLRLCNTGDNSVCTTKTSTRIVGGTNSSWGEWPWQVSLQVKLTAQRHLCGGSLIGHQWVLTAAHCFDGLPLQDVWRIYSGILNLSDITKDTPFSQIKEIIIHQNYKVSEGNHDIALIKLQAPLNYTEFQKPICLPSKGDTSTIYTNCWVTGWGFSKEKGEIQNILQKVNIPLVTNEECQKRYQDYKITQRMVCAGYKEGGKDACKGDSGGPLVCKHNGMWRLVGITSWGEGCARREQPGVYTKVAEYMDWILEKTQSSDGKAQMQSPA
Experiment: Inhibition constant for plasma kallikrein
Type: biochemical
Details: plasma kallikrein (PK); value used for the dose calculation
pKi: −log10 of the molar value. Bridges are numbered along the chain shown (N, C = ends). Where no end group is shown, it is not given here.
endpoint_name: pKi

• EAMHSFCAFKADDGPCRAAHPRWFFNIFTRQCEEFIYGGCEGNQNRFESLEECKKMCTRD (disulfide 7-57, 16-40, 32-53) [DX88] = 10.36
